Hey, just so you know, these numbers are from patent EP4768505A1.

Target: T1, Mouse CD79A+CD79B antigen (mouse) (UniProt P11911)
T1 sequence (looked up) 1: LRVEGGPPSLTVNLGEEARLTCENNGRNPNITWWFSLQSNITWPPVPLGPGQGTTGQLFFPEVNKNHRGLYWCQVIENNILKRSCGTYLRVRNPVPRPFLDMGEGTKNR
T1 sequence (looked up) 2: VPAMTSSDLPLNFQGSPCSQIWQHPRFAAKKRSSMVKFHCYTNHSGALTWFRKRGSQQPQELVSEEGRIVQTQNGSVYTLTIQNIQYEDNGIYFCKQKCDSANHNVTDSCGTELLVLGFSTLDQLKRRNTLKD
Test: ELISA on coated antigen, anti-myc detection; 20ng antibody added
measure: OD450 nm (OD450)
Express your answer in OD450, writing the number without its unit.

Query: Give its OD450 nm value. Item: anti-CD79B single-domain antibody JYB4 (VHH, Alpaca VHH from a phage library; not shown: His-tag protein at the C-terminal end) VHH: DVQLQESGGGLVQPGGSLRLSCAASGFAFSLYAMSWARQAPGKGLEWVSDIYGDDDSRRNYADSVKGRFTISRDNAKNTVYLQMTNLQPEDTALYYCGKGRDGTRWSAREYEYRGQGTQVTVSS
Result: 0.0572

Query: Ok, now anti-CD79B single-domain antibody JYB14 (VHH, Alpaca VHH from a phage library; ELISA detected with an anti-myc antibody; a myc tag is not described; not shown: His-tag protein at the C-terminal end) VHH: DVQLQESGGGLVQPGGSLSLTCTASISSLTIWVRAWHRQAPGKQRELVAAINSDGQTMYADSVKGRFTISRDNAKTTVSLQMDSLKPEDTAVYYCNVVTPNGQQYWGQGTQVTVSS
Result: 0.0578

Query: One more binder: anti-CD79B single-domain antibody JYB8 (VHH, not shown: small tags and cut ends) VHH: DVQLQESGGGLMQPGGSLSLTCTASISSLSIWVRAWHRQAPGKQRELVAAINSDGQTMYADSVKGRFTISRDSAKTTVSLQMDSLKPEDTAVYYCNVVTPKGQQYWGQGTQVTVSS
Result: 0.0553

Query: And what about the binder anti-CD79B single-domain antibody JYB11 (VHH, Alpaca VHH from a phage library; ELISA detected with an anti-myc antibody; a myc tag is not described; not shown: His-tag protein at the C-terminal end) VHH: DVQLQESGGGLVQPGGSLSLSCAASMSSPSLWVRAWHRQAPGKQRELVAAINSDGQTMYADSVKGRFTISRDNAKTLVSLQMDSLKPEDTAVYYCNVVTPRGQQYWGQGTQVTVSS ?
Result: 0.0575

Query: Again, but for anti-CD79B single-domain antibody JYB10 (VHH, Alpaca VHH from a phage library; ELISA detected with an anti-myc antibody; a myc tag is not described; not shown: His-tag protein at the C-terminal end) VHH: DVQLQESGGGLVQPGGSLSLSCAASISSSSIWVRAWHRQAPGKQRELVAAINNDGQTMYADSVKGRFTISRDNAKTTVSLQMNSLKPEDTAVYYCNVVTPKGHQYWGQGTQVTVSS
Result: 0.0609
